experiment: Timed organ biodistribution of [^64Cu]Cu-DOTATATE by ex vivo gamma counting; format: in vivo, mice; conditions: mouse, fat, intravenous, 1.85 MBq, total radioactivity; female Apoe^-/- mice 12 weeks on Western Diet, 30 min after injection, median (IQR), N=3-8; read-out: Tissue radioactivity, fat
ENDPOINT NAME: tissue uptake at 0.5 h (%ID/g)
Numbers only, in %ID/g.

stdin: Need tissue uptake at 0.5 h, item C[C@@H](O)[C@H](NC(=O)[C@@H]1CSSC[C@H](NC(=O)[C@@H](Cc2ccccc2)NC(=O)CN2CCN(CC(=O)O)CCN(CC(=O)O)CCN(CC(=O)O)CC2)C(=O)N[C@@H](Cc2ccc(O)cc2)C(=O)N[C@H](Cc2c[nH]c3ccccc23)C(=O)N[C@@H](CCCCN)C(=O)N[C@@H]([C@@H](C)O)C(=O)N1)C(=O)O [[^64Cu]Cu-DOTATATE, metal not drawn]
stdout: 0.3

The reported numbers originate from paper PMC9007951.
